# subject_of_test: human recombinant 15-PGDH (Homo sapiens, UniProt P15428)
# Sequence (P15428 1-266): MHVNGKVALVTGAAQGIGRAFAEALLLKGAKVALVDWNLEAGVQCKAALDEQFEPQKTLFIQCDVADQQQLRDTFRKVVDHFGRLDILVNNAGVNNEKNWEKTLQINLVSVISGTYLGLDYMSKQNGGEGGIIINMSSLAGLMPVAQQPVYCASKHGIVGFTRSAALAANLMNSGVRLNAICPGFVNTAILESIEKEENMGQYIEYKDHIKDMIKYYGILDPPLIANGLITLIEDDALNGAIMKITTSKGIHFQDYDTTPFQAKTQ
# protocol_summary: Inhibition of recombinant 15-PGDH enzymatic activity (NADH quantification after addition of PGE2 and NAD+)
# Type: biochemical
# particulars: recombinant 15-PGDH; 15 min pre-incubation, 60-minute reaction, room temperature, pH 7.5; PGE2 and NAD+; read-out: PGDH-Lumi IC50
pIC50: −log10 of the molar value.
parameter: pIC50

Observe how each entry below is paired with its result.
C[C@@H]1COCCN1C(=O)c1sc2nc(-c3cnc4nn(C)cc4c3)cc(C3CCC3)c2c1N [Compound B6R]
9.09
C[C@@H]1COCCN1C(=O)c1cc2ccc(-c3ccc(=O)n(C)c3)nc2s1 [Compound B32R]
5.87
Cn1cc2cc(-c3cc(C4CC4)c4cc(C(=O)N5CCOCC5)sc4n3)cnc2n1 [Compound B10]
9.04
Cn1cc2cc(-c3ccc4nc(C(=O)N5CCOCC5)sc4n3)cnc2n1 [Compound C51]
7.75
Cn1cc2cc(-c3ccc4cc(C(=O)N5CCOCC56CCC6)sc4n3)cnc2n1 [Compound B59]
7.33
Cc1c(C(=O)N2CCC(F)(F)CC2)sc2cc(-c3cnc4nn(C)cc4c3)ccc12 [Compound A3]
7.93

P: O=C(c1nc2ccc(N3CCOCC3)nc2s1)N1CCOCC1 [Compound C50]
Q: Cn1cc2cc(-c3ccc4cc(C(=O)N5CCOC(C)(C)C5)sc4n3)cnc2n1 [Compound B40]
Returns: the label, P or Q , whose recorded pIC50 is the lower number. Refer to your chosen item by its label in the answer.
P

---

# subject_of_test: human recombinant 15-PGDH (Homo sapiens, UniProt P15428)
# protocol_summary: Inhibition of recombinant 15-PGDH enzymatic activity (NADH quantification after addition of PGE2 and NAD+)
# Assay type: biochemical
# particulars: recombinant 15-PGDH; 15 min pre-incubation, 60-minute reaction, room temperature, pH 7.5; PGE2 and NAD+; read-out: PGDH-Lumi IC50
parameter: IC50 (nM)

C[C@@H]1COCCN1C(=O)c1cc2ccc(-c3cc(=O)n(C)cn3)nc2s1 [Compound B36R]
311

a: CC1CC(F)(F)CCN1C(=O)c1cc2ccc(-c3cnc4nn(C)cc4c3)nc2s1 (stereo not shown) [Compound B27]
b: Cn1cc2cc(-c3cc(C4CC4)c4cc(C(=O)N5CCCCC5)sc4n3)cnc2n1 [Compound B23]
Returns: the label, a or b , whose recorded IC50 is the lower number. Refer to your chosen item by its label in the answer.
b

---

# subject_of_test: human recombinant 15-PGDH (Homo sapiens, UniProt P15428)
# protocol_summary: Inhibition of recombinant 15-PGDH enzymatic activity (NADH quantification after addition of PGE2 and NAD+)
# Format: biochemical
# particulars: recombinant 15-PGDH; 15 min pre-incubation, 60-minute reaction, room temperature, pH 7.5; PGE2 and NAD+; read-out: PGDH-Lumi IC50
pIC50: −log10 of the molar value.
parameter: pIC50

A: Cn1cc2cc(-c3ccc4sc(C(=O)N5CCOCC5)c(N)c4n3)cnc2n1
B: Cn1cc(-c2ccc3cc(C(=O)N4CCOCC4)sc3n2)ccc1=O
C: C[C@@H]1COCCN1C(=O)c1cc2ccc(-c3cnc4ncn(C)c4c3)nc2s1 [Compound B63R]
D: CO[C@@H]1CCN(C(=O)c2sc3cc(-c4cnc5nn(C)cc5c4)ccc3c2C)C1
List the items above again, this time ordered by increasing pIC50. Write the labels, ordered according to the request.
B, D, A, C
(B: 6.24, D: 6.65, A: 7.70, C: 8.29)

1: C[C@H]1COCCN1C(=O)c1cc2ccc(-c3cnc4nn(C)nc4c3)nc2s1 [Compound B43S]
2: Cn1cc2cc(-c3cc(C4CCC4)c4c(N)c(C(=O)N5CCOCC5)sc4n3)cnc2n1
Which value of pIC50 is greater, the one for 1 or the one for 2 ? Refer to your chosen item by its label in the answer.
2

---

# subject_of_test: human recombinant 15-PGDH (Homo sapiens)
# protocol_summary: Inhibition of recombinant 15-PGDH enzymatic activity (NADH quantification after addition of PGE2 and NAD+)
# Type: biochemical
# particulars: recombinant 15-PGDH; 15 min pre-incubation, 60-minute reaction, room temperature, pH 7.5; PGE2 and NAD+; read-out: PGDH-Lumi IC50
parameter: IC50 (nM)

O=C(c1cc2ccc(-c3ccc(=O)[nH]c3)nc2s1)N1CCOCC1 [Compound B41]
641
Cn1ccc2cc(-c3ccc4cc(C(=O)N5CCOCC5)sc4n3)cnc2c1=O [Compound B58]
8.15
Cn1cnc(-c2ccc3cc(C(=O)N4CCOCC4)sc3n2)cc1=O [Compound B39]
128
C[C@H]1COCCN1C(=O)c1cc2c(C3CC3)cc(-c3cnc4nn(C)cc4c3)nc2s1 [Compound B17S]
1.17
C[C@H]1COCCN1C(=O)c1cc2ccc(-c3ccc(=O)[nH]c3)nc2s1 [Compound B48S]
986

A: Cn1nc2cc(-c3ccc4cc(C(=O)N5CCOCC5)sc4n3)cnc2n1 [Compound B42]
B: Cn1cc2cc(-c3cc(-c4ccnn4C)c4cc(C(=O)N5CCOCC5)sc4n3)cnc2n1 [Compound B13]
C: Cc1c(C(=O)N2CCOC[C@H]2C)sc2cc(-c3cnc4nn(C)cc4c3)ccc12 [Compound A1R]
D: Cn1cc2cc(-c3cc(C4CCC4)c4c(N)c(C(=O)N5CCCCC5)sc4n3)cnc2n1 [Compound B5]
E: Cc1c(C(=O)N2CCOCC2)sc2cc(-c3ccc(=O)n(C)c3)ccc12 [Compound A9]
Please give the order of these compounds when sorted by IC50, largest value leading. Write the labels, ordered according to the request.
E, C, A, B, D
(E: 4960 nM, C: 273 nM, A: 6.33 nM, B: 1.26 nM, D: 0.255 nM)

A: C[C@H]1CC(F)(F)CCN1C(=O)c1cc2ccc(-c3cnc4nn(C)cc4c3)nc2s1 (single isomer, unassigned) [Compound B27S]
B: C[C@H]1COCCN1C(=O)c1cc2ccc(-c3ccc(=O)n(C)c3)nc2s1 [Compound B32S]
C: Cn1cc2cc(-c3ccc4sc(C(=O)N5CCCCC5)cc4n3)cnc2n1 [Compound C42]
Please give the order of these compounds when sorted by IC50, largest value leading. Write the labels, ordered according to the request.
B, A, C
(B: 623 nM, A: 1.24 nM, C: 0.394 nM)

a: Cn1cc2cc(-c3cc(C4CC4)c4cc(C(=O)N5CCC(C(F)(F)F)CC5)sc4n3)cnc2n1 [Compound B20]
b: C[C@H]1COCCN1C(=O)c1cc2ccc(-c3cnc4ncn(C)c4c3)nc2s1 [Compound B63S]
Which value of IC50 is greater, the one for a or the one for b ? Refer to your chosen item by its label in the answer.
b

---

# subject_of_test: human recombinant 15-PGDH (Homo sapiens)
# Sequence (P15428 1-266): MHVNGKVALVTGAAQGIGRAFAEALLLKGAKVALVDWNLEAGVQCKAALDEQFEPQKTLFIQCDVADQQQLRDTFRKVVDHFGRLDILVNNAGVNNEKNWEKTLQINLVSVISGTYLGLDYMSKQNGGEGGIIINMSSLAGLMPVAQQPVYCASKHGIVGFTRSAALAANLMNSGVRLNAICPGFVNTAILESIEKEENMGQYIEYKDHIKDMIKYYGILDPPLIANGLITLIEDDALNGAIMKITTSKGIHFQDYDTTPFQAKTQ
# protocol_summary: Inhibition of recombinant 15-PGDH enzymatic activity (NADH quantification after addition of PGE2 and NAD+)
# Type: biochemical
# particulars: recombinant 15-PGDH; 15 min pre-incubation, 60-minute reaction, room temperature, pH 7.5; PGE2 and NAD+; read-out: PGDH-Lumi IC50
parameter: IC50 (nM)

Observe how each entry below is paired with its result.
Cc1c(C(=O)N2CCOCC2)sc2cc(-c3cnc4nn(C)cc4c3)ccc12 [Compound A2]
163
Cn1cc2cc(-c3ccc4sc(C(=O)N5CCCC(F)(F)C5)cc4n3)cnc2n1 [Compound C43]
0.375

A: Cn1cc2cc(-c3ccc4sc(C(=O)N5CCC(F)(F)CC5)c(N)c4n3)cnc2n1 [Compound C48]
B: CC(C)(C)OC(=O)N1CCN(c2ncc(-c3cc(C4CC4)c4cc(C(=O)N5CCCCC5)sc4n3)cn2)CC1 [Compound B18]
Which value of IC50 is greater, the one for A or the one for B ? Refer to your chosen item by its label in the answer.
A
(A: 3.53 nM, B: 1.58 nM)
